Values from PubChem BioAssay AID1159580

experiment: chemical genetic growth profiling, strain panel (AID 1159580);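 note: tested at 20 µM; growth read once vehicle control cultures reached saturation at 30 °C; 1 = growth at the plate median or of vehicle wells; lower values mean less growth of the strain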; settings: S. cerevisiae deletion strains, growth OD, locus YBR279W, strain paf1
In all, about 5,500 compounds went through this assay and about 2,000 (36%) were called active. About 18% were inconclusive and are not listed. Cut-off read from the data, not from the text of the source: active = normalized growth mostly below about 0.91 (no sharp cut-off); inconclusive = no clear call, values can overlap the other calls; inactive = mostly above about 0.92. This is one part of the list.
Please answer using one outcome listed in T for active, F for inactive

Q: Look up the recorded call for CCN(CCO)CCCC(C)Nc1ccnc2cc(Cl)ccc12 (stereo unspecified) in this test.
A: F

Q: Field: outcome | Entry: NCCSSCCN
A: F

Q: Per the records of this test, what outcome belongs to COc1cc(O)c(C(=O)/C=C/c2ccccc2)c(OC)c1 ?
A: T

Q: Could you check what this test reported for COc1cc(O)c(C(=O)/C=C/c2ccc(OC)c(O)c2)c(OC)c1 ?
A: F

Q: Status in this test for ClC1=C(Cl)C2(Cl)C3C(Cl)C=CC3C1(Cl)C2(Cl)Cl (stereo unspecified) ?
A: F

Q: Each compound tested received a call. Report the one for ClC1=C(Cl)C2(Cl)C3C4C=CC(C4)C3C1(Cl)C2(Cl)Cl (stereo unspecified) .
A: F

* * *

assay: chemical genetic growth profiling, strain panel (AID 1159580);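 note: tested at 20 µM; growth read once vehicle control cultures reached saturation at 30 °C; 1 = growth at the plate median or of vehicle wells; lower values mean less growth of the strain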; conditions: S. cerevisiae deletion strains, growth OD, locus YIR030C, strain dcg1, active compounds read low
The whole screen tested about 5,500 compounds, of which about 2,000 (36%) were called active. Another 18% or so got no clear call; they are omitted. The list shows a part of the results.
reported_property: normalized growth
The response must contain the number and no unit.

Q: Which normalized growth value belongs to CCC(=O)O[C@H]1CCC2C3CCC4=CC(=O)CC[C@]4(C)C3CC[C@@]21C (some centres undefined) ?
A: 0.991

Q: What does the data say about its normalized growth? Entry: C[C@H]1OC(n2cc(F)c(=O)[nH]c2=O)C(O)[C@@H]1O (some centres undefined)
A: 0.982

Q: # input compound: CC(C)(O)[C@@H]1[C@H]2OC(=O)[C@@H]1[C@]1(O)C[C@H]3O[C@]34C(=O)O[C@H]2[C@]14C ; wanted: its normalized growth
A: 1.02

Q: I have this compound here, COc1ccc2c(c1)OCc1c-2oc2cc(OC)ccc12 , and I need its recorded normalized growth.
A: 1

Q: Dear colleague, I am looking for the recorded normalized growth of the following compound: COc1ccc2c(C)cc(=O)oc2c1
A: 1.03

Q: Fill in the blank: the reported normalized growth of COc1cc2c(cc1OC)[C@@H]1C(=O)c3ccc(OC)c(CC=C(C)C)c3O[C@@H]1CO2 is ____.
A: 0.998

Q: Given O=C(CC[N+](=O)[O-])OC[C@H]1O[C@@H](O)[C@H](OC(=O)CC[N+](=O)[O-])[C@@H](OC(=O)CC[N+](=O)[O-])[C@@H]1OC(=O)CC[N+](=O)[O-] , state its recorded normalized growth.
A: 1.03

Q: Can you share its normalized growth? I mean this compound: COc1cc2c(cc1OC)C1C(=O)c3c(cc4c(c3O)C=CC(C)(C)O4)OC1CO2 (centres undefined)
A: 1.02

Q: I have this compound here, CO[C@H]1[C@H](O)[C@H](O[C@H]2CC[C@]3(C)C4CC[C@]5(C)C(C6=CC(=O)OC6)CC[C@]5(O)C4CC[C@@H]3C2)O[C@@H](C)[C@@H]1O (some centres undefined) , and I need its recorded normalized growth.
A: 0.998

Q: Could you tell me which normalized growth is on file for O=C(O)c1cc2ccccc2c(Cc2c(O)c(C(=O)O)cc3ccccc23)c1O ?
A: 1

Q: Find the recorded normalized growth belonging to COc1cc2c(cc1OC)C1C(=O)c3ccc4c(c3OC1CO2)CCC(C)(C)O4 (centres undefined) and report it.
A: 1

Q: What normalized growth value was documented for this compound, COc1cc2c(cc1OC)[C@@H]1C(=O)c3ccc4c(c3O[C@@H]1CO2)C=CC(C)(C)O4 ?
A: 0.979

Q: Using the record for C[C@]12CC(=O)C3C(CC[C@@H]4C[C@H](O)CC[C@]34C)C1CC[C@]2(O)C(=O)CO (some centres undefined) , report its normalized growth.
A: 0.991

Q: Entry CC[C@H](/C=C/C(C)C1CCC2C3CCC4=CC(=O)CC[C@]4(C)C3CC[C@]12C)C(C)C (some centres undefined) has what normalized growth?
A: 1

Q: Can you look up the measured normalized growth of CC(=O)[C@H]1CCC2C3CCC4=CC(=O)CC[C@]4(C)C3CC[C@@]21C (some centres undefined) for me?
A: 0.922

Q: Please report the recorded normalized growth for C[C@]12CCC(=O)C=C1CCC1C2CC[C@@]2(C)C1CC[C@@H]2O (some centres undefined) .
A: 1.03

Q: State the recorded normalized growth for this entry: CC1(C)OC(=O)NC1=O
A: 0.972

Q: Any idea what its normalized growth is? The compound is O=C(O)c1cc2ccccc2[nH]1
A: 1.01

Q: Fill in the blank: the reported normalized growth of O=C(O)c1c2ccccc2cc2ccccc12 is ____.
A: 0.987

* * *

assay: chemical genetic growth profiling, strain panel (AID 1159580);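 note: tested at 20 µM; growth read once vehicle control cultures reached saturation at 30 °C; 1 = growth at the plate median or of vehicle wells; lower values mean less growth of the strain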; details: S. cerevisiae deletion strains, growth OD, locus YNL233W, strain BNI4
About 2,000 (36%) of roughly 5,500 compounds were called active. Another 18% or so got no clear call; they are omitted. No stated cut-off is given here; in the data, active means normalized growth mostly below about 0.91 (no sharp cut-off); inconclusive means no clear call, values can overlap the other calls; inactive means mostly above about 0.92. This is one part of the list.
// classify into active, inactive

Q: Per the records of this test, what outcome belongs to CCC(=O)O[C@H]1CCC2C3CCC4=CC(=O)CC[C@]4(C)C3CC[C@@]21C (stereo not given in full) ?
A: active

Q: Give the logged outcome of this assay for the following compound: CC(=O)N[C@@H](CC(C)C)C(=O)O
A: inactive

Q: Returns: the outcome recorded for CCC(C)C(=O)O[C@H]1[C@H](O)C2C(CN3CC(C)CCC3[C@@]2(C)O)C2C[C@]34O[C@]5(O)C(OC(=O)C(C)(O)C(C)O)CC[C@@]3(C)C5C(OC(C)=O)[C@@H](OC(C)=O)C4[C@@]21O (stereo not given in full) in this assay.
A: inactive

Q: # fetch the recorded call for CCS(=O)CCSP(=O)(OC)OC (stereo not given) here
A: inactive

Q: Hey, what did the test say about NC(=O)c1ccc[n+]([C@@H]2O[C@H](COP(=O)([O-])OP(=O)(O)OC[C@H]3O[C@@H](n4cnc5c(N)ncnc54)[C@H](O)[C@@H]3O)[C@@H](O)[C@H]2O)c1 ?
A: inactive

Q: Look up the recorded call for Cc1cccc(C)c1OCC(C)N (stereo not given) in this test.
A: inactive

Q: Which outcome was assigned to COc1ccc2c(c1OC)C(=O)O[C@H]2[C@H]1c2cc3c(cc2CCN1C)OCO3 in this test?
A: inactive

Q: Entry ClC1=C(Cl)C2(Cl)C3C4C=CC(C4)C3C1(Cl)C2(Cl)Cl (stereo not given) : call = ?
A: inactive

Q: Please indicate how the test categorized COCCc1ccc(OCC(O)CNC(C)C)cc1 (stereo not given) .
A: inactive

Q: Record lookup: outcome of this test for COC1=CC(=O)C[C@@H](C)[C@]12Oc1c(Cl)c(OC)cc(OC)c1C2=O ?
A: inactive

Q: Record request — test call for COC1=C(OC)C(=O)C(C/C=C(\C)CC/C=C(\C)CC/C=C(\C)CC/C=C(/C)CC/C=C(\C)CC/C=C(\C)CC/C=C(\C)CC/C=C(\C)CC/C=C(\C)CCC=C(C)C)=C(C)C1=O
A: inactive

Q: I'd appreciate the recorded outcome for CC(N)CCCC(C)(C)O (stereo not given) from this test.
A: inactive

Q: For ClC1=C(Cl)C2(Cl)C3C(Cl)C=CC3C1(Cl)C2(Cl)Cl (stereo not given) , which call appears in the assay record?
A: inactive

Q: What was the test verdict on CN1CCC(=C2c3ccccc3Sc3ccccc32)CC1 ?
A: inactive

Q: Please indicate how the test categorized CC1=C(CC(=O)O)c2cc(F)ccc2/C1=C\c1ccc(S(C)=O)cc1 (stereo not given) .
A: inactive

Q: Short answer needed: outcome of this test for COP(=O)(OC)OC=C(Cl)Cl ?
A: inactive

Q: Could you please tell me the result logged for N=c1ccn2c(n1)O[C@@H]1C2O[C@H](CO)[C@H]1O (stereo not given in full) in this assay?
A: inactive

Q: Please share the test call associated with CCCCNc1cc(C(=O)O)cc(S(N)(=O)=O)c1Oc1ccccc1 .
A: inactive

Q: Hello, I am checking results. What call was entered for O=C(O)C1(O)C[C@@H](O)C(O)[C@H](O)C1 (stereo not given in full) ?
A: inactive

Q: Name the outcome recorded for COc1ccc2c(c1OC)C(=O)O[C@@H]2[C@H]1c2cc3c(cc2CCN1C)OCO3 in the assay.
A: inactive
